- System: left coronary blood flow
- experiment: Coronary blood flow after injection into left coronary artery of anesthetized dogs
- Type: in vivo
- conditions: intracoronary injection, anesthetized dog; dose to increase CBF by half of the effect of nifedipine (3 μg)
Please use Met whenever Increase in CBF ED50 is not below 2 µg, and Not met whenever it is.

Look over these answered cases.
CC1=C(C(=O)OC(C)C)C(c2cccc(F)c2F)n2ncc(C#N)c2N1 (centres unmarked) [(35)] ... Not met
CC1=C(C(=O)OC(C)C)C(c2cccc(F)c2Cl)n2nccc2N1 (centres unmarked) [(33)] ... Not met
CC1=C(C(=O)OC(C)C)C(c2cccc(F)c2F)n2nccc2N1 (centres unmarked) [(31)] ... Not met
CC1=C(C(=O)OC2CCCC2)C(c2ccccc2F)n2nccc2N1 (centres unmarked) [(25)] ... Met
CC1=C(C(=O)OC2CCCC2)C(c2ccccc2C(F)(F)F)n2nccc2N1 (centres unmarked) [(15)] ... Not met
CC1=C(C(=O)OC(C)C)C(c2ccccc2C(F)(F)F)n2nccc2N1 (centres unmarked) [(10)] ... Met

Could you verify whether the entry CC1=C(C(=O)OC(CN2CCCCC2)c2ccccc2)C(c2cccc([N+](=O)[O-])c2)n2nccc2N1 (centres unmarked) [(2)] shows Increase in CBF ED50 of no less than 2 µg? Not met

----------
- Test system: left coronary blood flow
- experiment: Coronary blood flow after injection into left coronary artery of anesthetized dogs
- Type: in vivo
- conditions: intracoronary injection, anesthetized dog; dose to increase CBF by half of the effect of nifedipine (3 μg)
Readings of Increase in CBF ED50 for the listed compounds
Express the result in µg but write the number alone.

Use these answered entries as a reference point.
CC1=C(C(=O)OC(C)C)C(c2cc(F)ccc2F)n2nccc2N1 (stereo not shown) ... 8
CC1=C(C(=O)OC(C)C)C(c2ccccc2F)n2ncc(C#N)c2N1 (stereo not shown) ... 1.0
CC1=C(C(=O)OC(C)C)C(c2ccccc2Cl)n2nccc2N1 (stereo not shown) ... 13
CC1=C(C(=O)OC(C)C)C(c2ccccc2Br)n2nccc2N1 (stereo not shown) ... 7
CC1=C(C(=O)OC(CN2CCCCC2)c2ccccc2)C(c2cccc([N+](=O)[O-])c2)n2ccnc2N1 (stereo not shown) ... 10.0

Request the reported Increase in CBF ED50 associated with CC1=C(C(=O)OC(C)(C)C)C(c2ccccc2C(F)(F)F)n2nccc2N1 (stereo not shown) 22

Request the reported Increase in CBF ED50 associated with CC1=C(C(=O)OCC(C)C)C(c2ccccc2C(F)(F)F)n2nccc2N1 (stereo not shown) 1.8

Request the reported Increase in CBF ED50 associated with CC1=C(C(=O)OC(C)C)C(c2ccccc2F)n2nccc2N1 (stereo not shown) 15

Request the reported Increase in CBF ED50 associated with CCOC(=O)C1=C(C)Nc2c(C#N)cnn2C1c1ccccc1C(F)(F)F (stereo not shown) 1.6

Request the reported Increase in CBF ED50 associated with CC1=C(C(=O)OCC2CC2)C(c2ccccc2C(F)(F)F)n2ncc(C#N)c2N1 (stereo not shown) 2.0
